- assayedTarget: PAR4 (Homo sapiens (Human))
- Sequence (Q96RI0 18-385): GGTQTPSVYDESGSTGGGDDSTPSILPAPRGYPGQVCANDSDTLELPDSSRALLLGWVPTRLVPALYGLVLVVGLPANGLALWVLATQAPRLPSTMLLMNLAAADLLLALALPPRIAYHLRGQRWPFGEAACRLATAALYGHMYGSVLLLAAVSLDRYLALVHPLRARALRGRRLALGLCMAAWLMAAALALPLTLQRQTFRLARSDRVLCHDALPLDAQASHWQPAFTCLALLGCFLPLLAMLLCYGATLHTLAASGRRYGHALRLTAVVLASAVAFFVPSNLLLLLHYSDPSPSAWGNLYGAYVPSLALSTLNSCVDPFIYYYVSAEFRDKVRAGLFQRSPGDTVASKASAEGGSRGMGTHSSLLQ
- experimentDescription: Gamma thrombin induced platelet aggregation assay (PRP assay)
- assayContext: human platelet rich plasma, 96-well microplate

- compound: "COc1cc(OCc2csc(NCCCN3CCCC3=O)n2)c2cc(-c3cn4nc(C)ccc4n3)oc2c1"
  IC50: "> 3 µM"
- compound: "COc1cc(OCc2csc(NCC3CCCO3)n2)c2cc(-c3cn4nc(C)ccc4n3)oc2c1 (stereo not drawn)"
  IC50: "> 3 µM"
- compound: "COc1cc(OCc2nc(C3(O)CCOCC3)sc2C(F)(F)F)c2cc(-c3cn4nc(OC)sc4n3)oc2c1"
  IC50: "> 3 µM"

====

- assayedTarget: PAR4 (Homo sapiens (Human))
- experimentDescription: FLIPR assay in PAR4-expressing HEK293 cells (PAR4 antagonist activity, calcium mobilization)
- Format: cell-based
- assayContext: H-Ala-Phe(4-F)-Pro-Gly-Trp-Leu-Val-Lys-Asn-Gly-NH2-induced calcium mobilization
Each item that follows carries a reported EC50.
measuredMetric: EC50 (nM)

- compound: "COc1cc(OCc2csc(-c3ccc(F)cc3)n2)c2cc(-c3cn4nc(OC)sc4n3)oc2c1 [Example 15]"
  measuredMetric: "EC50"
  reportedResult: 0.98
- compound: "COc1cc(OCc2csc(N3CCC3)n2)c2cc(-c3cn4nc(C)ccc4n3)oc2c1 [Example 257]"
  measuredMetric: "EC50"
  reportedResult: 7.5
- compound: "COc1cc(OCc2nc(-c3cccc(CO)c3)sc2C)c2cc(-c3cn4nc(OC)sc4n3)oc2c1 [Example 77]"
  measuredMetric: "EC50"
  reportedResult: 1
- compound: "COc1cc(OCc2csc(-c3ccc(C(=O)N(C)CC4CC4)cc3)n2)c2cc(-c3cn4nc(OC)sc4n3)oc2c1 [Example 314]"
  measuredMetric: "EC50"
  reportedResult: 0.37
- compound: "CCC(F)(c1nc(COc2cc(OC)cc3oc(-c4cn5nc(OC)sc5n4)cc23)cs1)C(F)(F)F (centres unmarked) [Example 139]"
  measuredMetric: "EC50"
  reportedResult: 0.41
- compound: "COc1cc(OCc2csc(N(C)CCC#N)n2)c2cc(-c3cn4nc(C)ccc4n3)oc2c1 [Example 250]"
  measuredMetric: "EC50"
  reportedResult: 3.6
- compound: "COc1cc(OCc2csc(C3(N[S@+]([O-])C(C)(C)C)CCOCC3)n2)c2cc(-c3cn4nc(OC)sc4n3)oc2c1 [Example 170]"
  measuredMetric: "EC50"
  reportedResult: 1.7
- compound: "COc1cc(OCc2nc(-c3ccc(C(=O)N(C)C)cc3)sc2C)c2cc(-c3cn4nc(OC)sc4n3)oc2c1 [Example 66]"
  measuredMetric: "EC50"
  reportedResult: 0.75
- compound: "COc1cc(OCc2nc(N)sc2C)c2cc(-c3cn4nc(OC)sc4n3)oc2c1 [Example 87]"
  measuredMetric: "EC50"
  reportedResult: 24
- compound: "COc1cc(OCc2csc(-c3ccc(C(=O)N(C4CC4)C4CC4)cc3)n2)c2cc(-c3cn4nc(OC)sc4n3)oc2c1 [Example 316]"
  measuredMetric: "EC50"
  reportedResult: 0.95
- compound: "COc1cc(OCc2csc(-c3ccc(C(=O)N4C(C)CCC4C)cc3)n2)c2cc(-c3cn4nc(OC)sc4n3)oc2c1 (centres unmarked) [Example 317]"
  measuredMetric: "EC50"
  reportedResult: 1.6
- compound: "COc1cc(OCc2csc(Nc3cccc(N(C)C)c3)n2)c2cc(-c3cn4nc(C)ccc4n3)oc2c1 [Example 248]"
  measuredMetric: "EC50"
  reportedResult: 3.1
- compound: "COc1cc(OCc2csc(-c3ccc(Cl)cc3)n2)c2cc(-c3cn4nc(OC)sc4n3)oc2c1 [Example 27]"
  measuredMetric: "EC50"
  reportedResult: 1.6
- compound: "COc1cc(OCc2csc(C(O)(c3ccc(Cl)cc3)C(F)(F)F)n2)c2cc(-c3cn4nc(OC)sc4n3)oc2c1 (centres unmarked) [Example 145]"
  measuredMetric: "EC50"
  reportedResult: 0.45
